Target: HLA-B*1801 (human)
Experiment: competitive inhibition binding assay, purified HLA
Conditions: remark: other sources report otherwise
pIC50: −log10 of the molar value.
RESULT TYPE: pIC50

I = EELSMLEVFEG [MAGE2-derived B44 peptide …, position 223]
II = VELVHFLL [MAGE2-derived B44 peptide VELVHFLL, position 114]
Could you tell me which of I and II has the lower pIC50 reading? // return label of chosen record II
(II: 8.30, I: 8.82)
